The entries below are paired with their reported selectivity ratio.
Assay: Selectivity index, ratio of CC50 for African green monkey BGM cells to IC50 for antileishmanial activity against Leishmania infantum MHOM/BR/70/BH46 intracellular amastigotes infected in canine DH82 cells
Type: toxicity, cell-based
Details: read-out: Ratio CC50/IC50

| structure.smiles | value.comparator | selectivity ratio |
| --- | --- | --- |
| CC1(C)CC[C@]2(C(=O)OCc3cn(Cc4ccc(F)cc4F)nn3)CC[C@]3(C)C(=CC[C@@H]4[C@@]5(C)CC[C@H](O)[C@@](C)(COCc6cn(Cc7ccc(F)cc7F)nn6)[C@@H]5CC[C@]43C)[C@@H]2C1 | = | 0.6 |
| C#CCOC[C@@]1(C)[C@@H]2CC[C@]3(C)[C@H](CC=C4[C@@H]5CC(C)(C)CC[C@]5(C(=O)OCC#C)CC[C@]43C)[C@@]2(C)CC[C@@H]1O | = | 3.5 |
| Cc1ccc(C(=O)Cn2cc(COC[C@@]3(C)[C@@H]4CC[C@]5(C)[C@H](CC=C6[C@@H]7CC(C)(C)CC[C@]7(C(=O)OCc7cn(CC(=O)c8ccc(C)cc8)nn7)CC[C@]65C)[C@@]4(C)CC[C@@H]3O)nn2)cc1 | > | 135 |

----------
Test: Cytotoxicity in human HepG2 cells assessed as reduction in cell viability incubated for 48 hrs by MTT assay
Type: cell-based

| structure.smiles | CC50 at 48 h |
| --- | --- |
| CC1(C)CC[C@]2(C(=O)OCc3cn(Cc4ccccc4F)nn3)CC[C@]3(C)C(=CC[C@@H]4[C@@]5(C)CC[C@H](O)[C@@](C)(COCc6cn(Cc7ccccc7F)nn6)[C@@H]5CC[C@]43C)[C@@H]2C1 | > 1000 µM |
| C#CCOC[C@@]1(C)[C@@H]2CC[C@]3(C)[C@H](CC=C4[C@@H]5CC(C)(C)CC[C@]5(C(=O)OCC#C)CC[C@]43C)[C@@]2(C)CC[C@@H]1O | 104 µM |
| CC1(C)CC[C@]2(C(=O)O)CC[C@]3(C)C(=CC[C@@H]4[C@@]5(C)CC[C@H](O)[C@@](C)(CO)[C@@H]5CC[C@]43C)[C@@H]2C1 | > 1000 µM |
| CC1(C)CC[C@]2(C(=O)OCc3cn(Cc4ccc(F)cc4F)nn3)CC[C@]3(C)C(=CC[C@@H]4[C@@]5(C)CC[C@H](O)[C@@](C)(COCc6cn(Cc7ccc(F)cc7F)nn6)[C@@H]5CC[C@]43C)[C@@H]2C1 | 105 µM |
| CC1(C)CC[C@]2(C(=O)OCc3cn(Cc4ccc([N+](=O)[O-])cc4)nn3)CC[C@]3(C)C(=CC[C@@H]4[C@@]5(C)CC[C@H](O)[C@@](C)(COCc6cn(Cc7ccc([N+](=O)[O-])cc7)nn6)[C@@H]5CC[C@]43C)[C@@H]2C1 | > 1000 µM |
| Cc1ccc(C(=O)Cn2cc(COC[C@@]3(C)[C@@H]4CC[C@]5(C)[C@H](CC=C6[C@@H]7CC(C)(C)CC[C@]7(C(=O)OCc7cn(CC(=O)c8ccc(C)cc8)nn7)CC[C@]65C)[C@@]4(C)CC[C@@H]3O)nn2)cc1 | > 1000 µM |
